system: Mycobacterium tuberculosis H37Rv; test: MIC in modified Difco-Tb-Bouillon, normally sensitive strain; assay type: cell-based; conditions: Table 2, read-out: MIC, normally sensitive H37Rv (Table 2)
Reported MIC values follow for various compounds
Reported Endpoint: MIC (µg/mL)

>>> print(df.to_string())
                                   compound  unit_annotation  obs_value
0  Cc1cccc(CNC(=O)c2cc([N+](=O)[O-])cc([N+](=O)[O-])c2)n1            µg/mL        3.1
1  O=C(NCc1cnc2ccccc2c1)c1cc([N+](=O)[O-])cc([N+](=O)[O-])c1            µg/mL        0.2
2  O=C(NCC1CCC=CO1)c1cc([N+](=O)[O-])cc([N+](=O)[O-])c1 (stereo not shown)            µg/mL        0.4
3  O=C(NCC1CCCO1)c1cc([N+](=O)[O-])cc([N+](=O)[O-])c1 (stereo not shown)            µg/mL        1.6
4  CC(NC(=O)c1cc([N+](=O)[O-])cc([N+](=O)[O-])c1)c1ccccn1 (stereo not shown)            µg/mL        1.6
5  O=C(NCc1ccccn1)c1cc([N+](=O)[O-])cc([N+](=O)[O-])c1            µg/mL        1.6
6  O=C(NCc1ccc2ccccc2n1)c1cc([N+](=O)[O-])cc([N+](=O)[O-])c1            µg/mL        0.2

---

Reported MIC values follow for various compounds
system: M. bovis Ravenal; test: microbe, parasite or virus in culture; type: cell-based; conditions: Mycobacterium tuberculosis variant bovis, read-out: MIC, M. bovis Ravenal
Reported Endpoint: MIC (µg/mL)

>>> print(df.to_string())
                                   compound  obs_value
0  Cc1cccc(CNC(=O)c2cc([N+](=O)[O-])cc([N+](=O)[O-])c2)n1 [Example 14]        3.1
1  O=C(NCC1CCCO1)c1cc([N+](=O)[O-])cc([N+](=O)[O-])c1 (stereo not drawn) [Example 20]        3.1
2  CC(NC(=O)c1cc([N+](=O)[O-])cc([N+](=O)[O-])c1)c1ccccn1 (stereo not drawn) [Example 29]        3.1

---

Record type: MIC measurement. Applies to: "Atypical mycobacteria" Runyon Grouping 4
Reported Endpoint: MIC (µg/mL)

>>> df
                                   compound  unit_annotation  obs_value
0  O=C(NCC1CCCO1)c1cc([N+](=O)[O-])cc([N+](=O)[O-])c1 (stereo not shown) [Example 20]            µg/mL        6.2
1  O=C(NCc1ccccn1)c1cc([N+](=O)[O-])cc([N+](=O)[O-])c1 [Example 1]            µg/mL        6.2
2  O=C(NCC1CCC=CO1)c1cc([N+](=O)[O-])cc([N+](=O)[O-])c1 (stereo not shown) [Example 22]            µg/mL        1.6
3  CC(NC(=O)c1cc([N+](=O)[O-])cc([N+](=O)[O-])c1)c1ccccn1 (stereo not shown) [Example 29]            µg/mL        3.1
4  Cc1cccc(CNC(=O)c2cc([N+](=O)[O-])cc([N+](=O)[O-])c2)n1 [Example 14]            µg/mL       12.5
5  O=C(NCc1ccc2ccccc2n1)c1cc([N+](=O)[O-])cc([N+](=O)[O-])c1 [Example 15]            µg/mL        1.6
6  O=C(NCc1cnc2ccccc2c1)c1cc([N+](=O)[O-])cc([N+](=O)[O-])c1 [Example 9]            µg/mL        1.6
